Reference source for all entries: paper PMC6556873

Biological target: NNMT (hNNMT) (Homo sapiens, UniProt P40261)
Construct: wild type, N-terminal His6 tag kept (no cleavage described), E. coli, construct 31248 Da
Sequence (P40261 1-264): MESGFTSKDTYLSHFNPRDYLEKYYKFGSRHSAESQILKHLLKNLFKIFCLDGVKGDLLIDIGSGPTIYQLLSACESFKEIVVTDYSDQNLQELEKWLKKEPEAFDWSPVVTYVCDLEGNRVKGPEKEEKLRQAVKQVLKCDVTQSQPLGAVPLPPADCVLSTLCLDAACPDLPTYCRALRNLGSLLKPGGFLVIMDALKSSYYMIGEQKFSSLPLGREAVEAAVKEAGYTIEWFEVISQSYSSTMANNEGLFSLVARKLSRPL
Parameters: Intact protein LC/MS covalent labelling, fragments in pools of five, 200 uM each, 4 °C
Conditions: 24 h, 4 °C, pool of five; 200 µM; covalent
Recorded NNMT by entry
endpoint: NNMT

1) CN1C(=O)c2ccc(NC(=O)CCl)cc2C1=O [PCM-0102309] | 0
2) COC(=O)c1cccc(NC(=O)CCl)c1 [PCM-0103048] | 0.2
3) C=CC(=O)Nc1nc(C)cc(C)n1 [PCM-0102547] | 0
4) O=C(CCl)Nc1nc(-c2cc(F)ccc2F)cs1 [PCM-0102496] | 1
5) C=CC(=O)N1CCCc2cc(C(=O)O)ccc21 [PCM-0102421] | 0.19
6) O=C(CCl)NC(=O)Nc1ccc2c(c1)OCCCO2 [PCM-0102910] | 0.69
7) C#CCN1CCN(C(=O)CCl)CC1.Cl [PCM-0102811] | 0
8) CN(Cc1ccc(F)cc1)C(=O)CCl [PCM-0102939] | 0
9) C=CC(=O)N1CCCC1C1COCCC1(C)O (stereo not drawn) [PCM-0102571] | 0
10) O=C(CCl)NCC1CCC1 [PCM-0103065] | 0
11) O=C(CCl)NNC(=O)c1ccc([N+](=O)[O-])cc1 [PCM-0102885] | 0
12) CC(C)c1cccc(NC(=O)CCl)c1 [PCM-0102429] | 0.52
13) CC(C)C(C)(C#N)NC(=O)CCl (stereo not drawn) [PCM-0102626] | 0
14) O=C(CCl)N1CCNCC1.O=C(O)C(F)(F)F [PCM-0102476] | 0
15) C=CC(=O)N1CCC(CN2C(=O)CNC2=O)C1 (stereo not drawn) [PCM-0102488] | 0
16) O=C(CCl)NC12CC3CC(CC(C3)C1)C2 [PCM-0102118] | 0.23
17) O=C(CCl)NC(=O)c1ccccc1 [PCM-0102414] | 0
18) C=CC(=O)N1Cc2ccc(S(=O)(=O)N(C)C)cc2C1 [PCM-0102718] | 0
19) CC(C)(C)c1nnc(NC(=O)CCl)s1 [PCM-0102736] | 0.13
20) CN(Cc1ccc2c(c1)OCCO2)C(=O)CCl [PCM-0102958] | 0
21) CN(CC(=O)N1CCOCC1)C(=O)CCl [PCM-0102743] | 0
